The measured values listed here are drawn from ChEMBL document CHEMBL4706547.

Provide the recorded pIC50 for the entries that follow.
# TGT: Tryptophan 2,3-dioxygenase (Homo sapiens)
# Sequence (P48775 whole entry): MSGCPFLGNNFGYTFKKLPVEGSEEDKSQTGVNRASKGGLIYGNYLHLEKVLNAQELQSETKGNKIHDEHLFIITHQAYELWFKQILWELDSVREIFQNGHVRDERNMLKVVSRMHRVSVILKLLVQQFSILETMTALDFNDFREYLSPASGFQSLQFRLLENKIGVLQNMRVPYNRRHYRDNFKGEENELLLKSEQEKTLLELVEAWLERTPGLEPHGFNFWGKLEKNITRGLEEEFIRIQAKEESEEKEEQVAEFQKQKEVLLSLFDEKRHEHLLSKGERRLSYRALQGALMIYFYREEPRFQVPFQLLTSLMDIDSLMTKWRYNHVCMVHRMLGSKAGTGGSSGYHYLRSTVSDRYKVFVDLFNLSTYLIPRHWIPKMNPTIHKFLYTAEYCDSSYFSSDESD
# PROCEDURE_DETAILS: Inhibition of TDO (unknown origin) assessed as reduction in L-kynurenine formation using L-tryptophan as substrate incubated for 30 mins microplate spectrophotometry analysis
Worth noting: pIC50 values are minus log10 of concentrations stated in mol/L.

# pIC50 lookup, item `O=C1c2ccccc2C(=O)c2c1nnn2-c1ccc(F)cc1`
7.31

I would be grateful if you could share the reported pIC50 for `O=C1c2ccccc2C(=O)c2c1nnn2-c1ccc(Cl)c(F)c1` .
7.74

Reported pIC50 for `O=C1c2ccccc2C(=O)c2c1nnn2-c1ccc2[nH]cnc2c1` : what is it?
6.98

Need pIC50 of `O=C1c2ccccc2C(=O)c2c1nnn2-c1ccc(Cl)c([N+](=O)[O-])c1` , thanks.
7.82

So what's the measured pIC50 for this one? `O=C1c2ccccc2C(=O)c2c1nnn2-c1cc(Cl)c(F)c(Cl)c1`
7.47

Bench note: what pIC50 did `O=C1c2ccccc2C(=O)c2c1nnn2-c1ccc(-c2nnn[nH]2)cc1` show?
7.60

Look at this compound and give its reported pIC50. `O=C1c2ccc(O)cc2C(=O)c2c1nnn2-c1ccc(F)c(Cl)c1`
6.42

Query (compound): `COC(=O)c1ccc(-n2nnc3c2C(=O)c2ccccc2C3=O)cc1` ; field requested: pIC50
7.24

// lookup pIC50 for `CC(=O)Nc1cccc(-n2nnc3c2C(=O)c2ccccc2C3=O)c1`
6.88

Would you kindly share the measured pIC50 for `O=C1c2cc(O)ccc2C(=O)c2c1nnn2-c1ccc(F)c(Cl)c1` ?
6.77

Item under review: `O=C1c2ccccc2C(=O)c2c1nnn2-c1ccccc1` . Reported pIC50?
7.15

Reported pIC50 for `O=C1c2ccccc2C(=O)c2c1nnn2-c1ccc(Cl)c(Cl)c1` : what is it?
7.74

Find the recorded pIC50 belonging to `COc1ccc2c(c1)C(=O)c1nnn(-c3ccc(F)c(Cl)c3)c1C2=O` and report it.
6.98

Record request: pIC50 value, item `O=C1c2ccc(F)cc2C(=O)c2c1nnn2-c1ccc(F)c(Cl)c1`
8.00

Query: pIC50; subject: `O=C1c2ccccc2C(=O)c2c1nnn2-c1cccc(F)c1`
7.00

If you can, please state the reported pIC50 value of `O=C1c2ccccc2C(=O)c2c1nnn2-c1cccc(Cl)c1` .
7.44

I'd like to know its pIC50. The compound in question is `NS(=O)(=O)c1ccc(-n2nnc3c2C(=O)c2ccccc2C3=O)cc1`
7.32

What measured pIC50 goes with `O=C1c2ccccc2C(=O)c2c1nnn2-c1ccc([N+](=O)[O-])cc1` ?
7.32

Need pIC50 of `N#Cc1ccc(-n2nnc3c2C(=O)c2ccccc2C3=O)cc1` , thanks.
7.18

###

Read-out record for Indoleamine 2,3-dioxygenase 1 (Homo sapiens, UniProt P14902): pIC50
By convention, pIC50 is the negative base-10 log of a molar concentration.

Hi! What's the reported pIC50 for `O=C1c2cc(O)ccc2C(=O)c2c1nnn2-c1ccc(F)c(Cl)c1` on Indoleamine 2,3-dioxygenase 1 (Homo sapiens, UniProt P14902)?
6.84

Find pIC50 (Indoleamine 2,3-dioxygenase 1 (Homo sapiens, UniProt P14902)) for the entry `O=C1c2ccccc2C(=O)c2c1nnn2-c1cccc(F)c1`
7.28

# query: pIC50 | item `O=C1c2ccc(F)cc2C(=O)c2c1nnn2-c1ccc(F)c(Cl)c1` | system: Indoleamine 2,3-dioxygenase 1 (Homo sapiens, UniProt P14902)
8.00

Please tell me: pIC50 of `O=C1c2ccccc2C(=O)c2c1nnn2-c1ccc(F)c(Cl)c1` , system Indoleamine 2,3-dioxygenase 1 (Homo sapiens, UniProt P14902)?
7.89

Test system Indoleamine 2,3-dioxygenase 1 (Homo sapiens, UniProt P14902); read-out pIC50; what value for `O=C1c2ccccc2C(=O)c2c1nnn2-c1ccc(F)cc1` ?
7.24

# value lookup — system Indoleamine 2,3-dioxygenase 1 (Homo sapiens, UniProt P14902), readout pIC50, item `O=C1c2ccccc2C(=O)c2c1nnn2-c1ccc2[nH]ncc2c1`
7.35

Provide value of pIC50 for this record tested with Indoleamine 2,3-dioxygenase 1 (Homo sapiens, UniProt P14902): `O=C1c2ccccc2C(=O)c2c1nnn2-c1cccnc1`
Sequence (P14902 whole entry): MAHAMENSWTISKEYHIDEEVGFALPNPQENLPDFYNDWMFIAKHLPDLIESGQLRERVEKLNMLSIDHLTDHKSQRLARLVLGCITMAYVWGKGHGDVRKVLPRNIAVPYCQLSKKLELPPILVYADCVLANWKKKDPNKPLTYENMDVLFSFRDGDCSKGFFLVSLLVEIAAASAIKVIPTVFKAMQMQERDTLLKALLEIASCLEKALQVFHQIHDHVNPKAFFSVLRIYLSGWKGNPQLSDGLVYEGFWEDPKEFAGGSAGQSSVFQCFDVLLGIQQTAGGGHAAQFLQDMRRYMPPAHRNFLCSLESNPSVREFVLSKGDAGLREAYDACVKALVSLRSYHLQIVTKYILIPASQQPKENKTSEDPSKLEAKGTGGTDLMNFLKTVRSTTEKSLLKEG
7.64
